System: Escherichia coli
Experiment: Antibacterial activity against Escherichia coli by twofold serial dilution method
Assay type: functional
MIC values, listed per item
State the answer as a number, implicitly in µg/mL.

Examples from the recorded data:
# compound, assay_metric, observed_measurement
data = [
    ("Cc1ccc(C2C3CCCC(C3=NOCc3ccccc3)C(c3ccc(C)cc3)N2C)cc1 (stereo not drawn)", "MIC", 100),
    ("Clc1ccc(C2NC(c3ccc(Cl)cc3)C3C(=NOCc4ccccc4)C2C(c2ccc(Cl)cc2)NC3c2ccc(Cl)cc2)cc1 (stereo not drawn)", "MIC", 50),
    ("Fc1ccc(C2NC(c3ccc(F)cc3)C3C(=NOCc4ccccc4)C2C(c2ccc(F)cc2)NC3c2ccc(F)cc2)cc1 (stereo not drawn)", "MIC", 12.5),
    ("CN1C(c2ccc(F)cc2)C2CCCC(C2=NOCc2ccccc2)C1c1ccc(F)cc1 (stereo not drawn)", "MIC", 12.5),
]

Q: Entry CN1C(c2ccccc2)C2CCCC(C2=NOCc2ccccc2)C1c1ccccc1 (stereo not drawn) : reported MIC = ?
A: 100

Q: Give its MIC value. Item: Fc1cccc(C2NC(c3cccc(F)c3)C3C(=NOCc4ccccc4)C2C(c2cccc(F)c2)NC3c2cccc(F)c2)c1 (stereo not drawn)
A: 25

Q: Entry under review: Clc1ccc(C2NC(c3ccc(Cl)cc3)C3CCCC2C3=NOCc2ccccc2)cc1 (stereo not drawn) . Reported MIC?
A: 50

Q: So what does the record say about MIC for COc1ccc(C2NC(c3ccc(OC)cc3)C3C(=NOCc4ccccc4)C2C(c2ccc(OC)cc2)NC3c2ccc(OC)cc2)cc1 (stereo not drawn) ?
A: 50

* * *

System: Candida albicans
Experiment: Antifungal activity against Candida albicans by twofold serial dilution method
Format: functional
# Lookup of reported MIC keyed by entry
Use µg/mL as the unit, but write only the number.

# compound, unit_spec, MIC
rows = [
    ("Fc1cccc(C2NC(c3cccc(F)c3)C3C(=NOCc4ccccc4)C2C(c2cccc(F)c2)NC3c2cccc(F)c2)c1 (stereo unspecified)", "µg/mL", 25),
    ("COc1ccc(C2C3CCCC(C3=NOCc3ccccc3)C(c3ccc(OC)cc3)N2C)cc1 (stereo unspecified)", "µg/mL", 25),
    ("Clc1ccc(C2NC(c3ccc(Cl)cc3)C3CCCC2C3=NOCc2ccccc2)cc1 (stereo unspecified)", "µg/mL", 25),
    ("Clc1ccccc1C1NC(c2ccccc2Cl)C2CCCC1C2=NOCc1ccccc1 (stereo unspecified)", "µg/mL", 12.5),
]

Q: Notebook entry, Candida albicans assay: MIC of c1ccc(CON=C2C3C(c4ccccc4)NC(c4ccccc4)C2C(c2ccccc2)NC3c2ccccc2)cc1 (stereo unspecified) = ?
A: 100

Q: Hello, I am looking for reported MIC with Candida albicans for CN1C(c2ccc(F)cc2)C2CCCC(C2=NOCc2ccccc2)C1c1ccc(F)cc1 (stereo unspecified) . Could you help?
A: 12.5

* * *

Test system: Candida albicans
Assay: Antifungal activity against Candida albicans by twofold serial dilution method
Type: functional
Overview of recorded MIC for various compounds
Could you give the number and then its unit, please?

Consider the following illustrative entries.
# compound, MIC
data = [
    ("c1ccc(CON=C2C3CCCC2C(c2ccccc2)NC3c2ccccc2)cc1 (stereo not given)", "100 µg/mL"),
    ("CN1C(c2ccccc2)C2CCCC(C2=NOCc2ccccc2)C1c1ccccc1 (stereo not given)", "50 µg/mL"),
]

Q: Query: MIC; subject: C[C@@H]1[C@H](O)[C@@H](C)/C=C/C=C/C=C/C=C/C=C/C=C/C=C/[C@H](O[C@@H]2O[C@H](C)[C@@H](O)[C@H](N)[C@@H]2O)C[C@@H]2O[C@](O)(C[C@@H](O)C[C@@H](O)[C@H](O)CC[C@@H](O)C[C@@H](O)CC(=O)O[C@H]1C)C[C@H](O)[C@H]2C(=O)O
A: 25 µg/mL

Q: Could you tell me which MIC is on file for Cc1ccc(C2NC(c3ccc(C)cc3)C3C(=NOCc4ccccc4)C2C(c2ccc(C)cc2)NC3c2ccc(C)cc2)cc1 (stereo not given) ?
A: 25 µg/mL

Q: Entry under review: Cc1ccc(C2NC(c3ccc(C)cc3)C3CCCC2C3=NOCc2ccccc2)cc1 (stereo not given) . Reported MIC?
A: 50 µg/mL

Q: Find the recorded MIC belonging to CN1C(c2ccc(Cl)cc2)C2CCCC(C2=NOCc2ccccc2)C1c1ccc(Cl)cc1 (stereo not given) and report it.
A: 25 µg/mL

Q: Please look up its MIC: Clc1ccc(C2NC(c3ccc(Cl)cc3)C3C(=NOCc4ccccc4)C2C(c2ccc(Cl)cc2)NC3c2ccc(Cl)cc2)cc1 (stereo not given)
A: 12.5 µg/mL

Q: Tell me the measured MIC of Fc1ccc(C2NC(c3ccc(F)cc3)C3CCCC2C3=NOCc2ccccc2)cc1 (stereo not given) , please.
A: 25 µg/mL

Q: What does the record list as MIC for COc1ccc(C2NC(c3ccc(OC)cc3)C3CCCC2C3=NOCc2ccccc2)cc1 (stereo not given) ?
A: 50 µg/mL

Q: If you can, please state the reported MIC value of Fc1ccc(C2NC(c3ccc(F)cc3)C3C(=NOCc4ccccc4)C2C(c2ccc(F)cc2)NC3c2ccc(F)cc2)cc1 (stereo not given) .
A: 12.5 µg/mL
